# Test system: HPPD polypeptides
# Assay Remarks: coupled HPPD activity assay: turnover and residual turnover in crude extracts
# Format: biochemical, Pseudomonas fluorescens
# Stated Conditions: 100 μM Cmpd. 1; signal change with inhibitor divided by signal change without inhibitor
Reported Endpoint: Residual turnover [%] (%)

Molecule	Uom	Numeric Value
55 (protein, mutant HPPD polypeptide) MADLYENPMGLMGFEFIEFASPTPGTLEPIFEIMGFTKVATHRSKNVHLYRQGEINLILNNEPNSIASYFAAEHGPSVCGMAFRVKDSQKAYNRALELGAQPIHIDTGPMELNLPAIKGIGGAPLYLIDRFGEGSSIYDIDFVYLEGVERNPVGAGLKVIDHLTHNVYRGRMVYWANFYEKLFNFREARYFDIKGEYTGLTSKAMSAPDGMIRIPLNEESSKGAGQIEEFLMQFNGEGIQHVAFLTDDLVKTWDALKKIGMRFMTAPADNYYEMLEGRLPDHGEPVDQLQARGILLDGSSVEGDKRLLLQIFSETLMGPVFFEFIQRKGDDGFGPHSFKVLFESKERDQVRRGVLTAD	%	50
